Where these numbers come from: ChEMBL document CHEMBL2375264

test: Cytotoxicity against Swiss mouse peritoneal macrophages after 24 hrs by MTT assay; type: cell-based, Peritoneal macrophage cell
Observation Type: CC50 at 24 h
Please make sure the unit comes right after the number.

Solved entries:
CC(C)(O)c1cn(C2C3=C(OC2(C)C)C(=O)c2ccccc2C3=O)nn1 (stereo unspecified)
19.8 µM
O=C1C=C(n2cc(-c3ccc([N+](=O)[O-])cc3)nn2)C(=O)c2ccccc21
50 µM
CC1(C)OC2=C(C(=O)c3ccccc3C2=O)C1n1cc(C2CCCCC2)nn1 (stereo unspecified)
18.7 µM
CCCCCc1cn(C2CC(C)(C)OC3=C2C(=O)c2ccccc2C3=O)nn1 (stereo unspecified)
6.89 µM

Please fill in: CC50 at 24 h reported for CCCCCc1cn(C2C3=C(OC2(C)C)C(=O)c2ccccc2C3=O)nn1 (stereo unspecified) = 16 µM

Please fill in: CC50 at 24 h reported for CC(C)=CCC1=C(O)C(=O)c2ccccc2C1=O [LAPACHOL] = 59.3 µM
